# Test system: TK-10 renal
# assay details: NCI-60 one-dose screen, 48 h
# test conditions: 10 µM unless noted
This is part of a sample that, as a whole, favours compounds with a hit. Of some 83,000 tested, about 20% had one in any assay. Active and inactive are the calls of the source. The calls were made as follows: active = growth percent below 10; inactive = the rest.
Classes used: active, inactive

[
  {
    "molecule": "Cn1ncc(Cl)c1-c1cc(C(=O)N[C@H](CN)Cc2cccc(F)c2)sc1Cl",
    "category": "active"
  },
  {
    "molecule": "CCCCCCCC(=O)SCC/C=C/[C@@H]1CC(=O)NCc2nc(co2)C2=N[C@@](C)(CS2)C(=O)N[C@@H](C(C)C)C(=O)O1",
    "category": "active"
  },
  {
    "molecule": "NC(=O)c1n[nH]n2c1nc(=O)c1c3c(sc12)CCCC3",
    "category": "inactive"
  },
  {
    "molecule": "CN(C[C@@H]1COCCO1)S(=O)(=O)Nc1ccc2ccc3ncc(-c4cnn(C)c4)cc3c(=O)c2c1",
    "category": "inactive"
  },
  {
    "molecule": "COc1cccc(Nc2ncnn3ccc(CN4CC[C@@H](N)[C@H](O)C4)c23)c1",
    "category": "active"
  },
  {
    "molecule": "CCc1ccc(C2=C(O)C(=O)C(c3ccc(CC)cc3)=C(O)C2=O)cc1",
    "category": "active"
  },
  {
    "molecule": "O=C1OCC2=C1C(c1cccc(F)c1)c1cc3c(cc1N2CCO)OCCO3 (centres undefined)",
    "category": "inactive"
  },
  {
    "molecule": "FC(F)c1nc2ccccc2n1-c1nc(N2CCOCC2)nc(N2CCOCC2)n1",
    "category": "active"
  },
  {
    "molecule": "COc1cc(Nc2c(C#N)cnc3cc(OCCCN4CCN(C)CC4)c(OC)cc23)c(Cl)cc1Cl",
    "category": "inactive"
  }
]
